Test: molar heat capacity at constant pressure
Conditions: 308.15 K; 101.33 kPa; Liquid; Small sample (50 mg) DSC
Mark satisfied for molar heat capacity at constant pressure under 200 J/K/mol, not satisfied if at or over.

The following compounds have reported results that may help.
Cc1ccncc1 [4-methylpyridine]    satisfied
Cc1ccccc1N [2-methylaniline]    not satisfied
c1ccncc1 [pyridine]    satisfied

For this compound, is molar heat capacity at constant pressure lower than 200 J/K/mol? CCn1cc[n+](C)c1.F[B-](F)(F)F [1-ethyl-3-methylimidazolium tetrafluoroborate]
not satisfied

Check if molar heat capacity at constant pressure falls below 200 J/K/mol for Cc1ccccn1 [2-methylpyridine] .
satisfied

Is it true that molar heat capacity at constant pressure reported for Cc1cccnc1 [3-methylpyridine] is less than 200 J/K/mol?
satisfied
